# Assay target: UniProt:P11712
# Sequence (P11712 whole entry): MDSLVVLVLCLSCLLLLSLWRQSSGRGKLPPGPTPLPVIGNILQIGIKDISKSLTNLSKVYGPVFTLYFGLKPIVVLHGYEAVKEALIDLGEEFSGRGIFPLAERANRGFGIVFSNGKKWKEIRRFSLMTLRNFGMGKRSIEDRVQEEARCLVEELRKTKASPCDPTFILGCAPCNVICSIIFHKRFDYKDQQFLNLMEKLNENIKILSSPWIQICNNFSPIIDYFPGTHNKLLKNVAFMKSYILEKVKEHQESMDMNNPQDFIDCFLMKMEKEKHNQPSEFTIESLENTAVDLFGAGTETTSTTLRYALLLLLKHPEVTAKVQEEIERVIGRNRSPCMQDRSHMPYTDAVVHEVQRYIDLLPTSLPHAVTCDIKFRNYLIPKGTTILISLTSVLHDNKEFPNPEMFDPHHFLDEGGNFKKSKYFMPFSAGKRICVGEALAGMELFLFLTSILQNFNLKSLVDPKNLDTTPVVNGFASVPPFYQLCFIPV
# Procedure details: Inhibition of human CYP2C9
# Format: ADME
Quantity kind: IC50 (µM)

(A) O=C(O)c1cnnc(C2=C(c3cc(Cl)ccc3OCc3ccc(F)cc3F)CCC2)c1
(B) O=C(O)c1cncc(C2=C(c3cc(C(F)(F)F)ccc3OCc3ccccc3)CCC2)c1
(C) Cc1ncc(C2=C(c3cc(Cl)ccc3OCc3ccc(F)cc3)CCC2)cc1C(=O)O
Ranking criterion: IC50, increasing numeric value. Items: as listed above. Return value: ordered labels per request.
A, C, B

---

# Assay target: Prostaglandin E2 receptor EP1 subtype (Homo sapiens, UniProt P34995)
# Sequence (P34995 whole entry): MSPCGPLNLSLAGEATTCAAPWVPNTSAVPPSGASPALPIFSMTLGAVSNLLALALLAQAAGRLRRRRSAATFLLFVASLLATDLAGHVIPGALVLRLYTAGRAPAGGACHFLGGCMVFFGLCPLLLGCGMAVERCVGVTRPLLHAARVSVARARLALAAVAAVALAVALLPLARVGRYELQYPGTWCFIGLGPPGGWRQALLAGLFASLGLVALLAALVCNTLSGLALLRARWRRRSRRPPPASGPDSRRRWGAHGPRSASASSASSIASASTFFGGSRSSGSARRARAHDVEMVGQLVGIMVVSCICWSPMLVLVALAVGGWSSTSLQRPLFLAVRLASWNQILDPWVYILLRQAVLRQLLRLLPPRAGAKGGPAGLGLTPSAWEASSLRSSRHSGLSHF
Quantity kind: IC50 (nM)

> print(dat)
                            smiles.notation  units  recorded.measurement
1  N#Cc1ccc(OCc2ccc(Cl)cc2)c(C2=C(c3cccc(C(=O)O)c3)CCC2)c1     nM                   200
2  N#Cc1ccc(OCc2ccc(F)cc2)c(C2=C(c3cccc(C(=O)O)c3)CCC2)c1     nM                   398
3  O=C(O)c1cc(C2=C(c3cc(Cl)ccc3OCc3ccccc3)CCC2)ncn1     nM                   200

(I) Cc1ncc(C2=C(c3cc(Cl)ccc3OCc3ccc(F)cc3)CCC2)cc1C(=O)O
(II) O=C(O)c1cccc(C2=C(c3cc(Br)ccc3OCc3ccc(Cl)c(Cl)c3)CCC2)c1
Given I and given II , which shows the smaller recorded IC50? Give the chosen item's label as your response.
I
(I: 1.58 nM, II: 100 nM)

---

# Procedure details: Volume of distribution in rat at 1 mg/kg, iv
# Type: ADME, organism-based
# Parameters: dose 1 mg/kg, route intravenous
# Condition label: in vivo, read-out: Vdss
Quantity kind: Vd (L/kg)

Known Vd results, listed for orientation:
> print(dat)
                            smiles.notation  units  recorded.measurement
1  O=C(O)c1cccc(C2=C(c3cc(Br)ccc3OCc3ccccc3)CCC2)c1   L/kg                     1
2  O=C(O)c1cccc(C2=C(c3cc(Br)ccc3OCc3ccc(F)cc3F)CCC2)c1   L/kg                   0.6

(I) O=C(O)c1cccc(C2=C(c3cc(Br)ccc3OCc3ccc(F)cc3)CCC2)c1
(II) O=C(O)c1cccc(C2=C(c3cc(Br)ccc3OCc3ccc(Cl)cc3)CCC2)c1
Given I and given II , which shows the smaller recorded Vd? Give the chosen item's label as your response.
II
(II: 0.4 L/kg, I: 0.7 L/kg)
